Post-emergence action against ABUTH listing for selected compounds.
System: ABUTH
Test: Post-emergence action against ABUTH, 1.28 kg/ha
Assay type: in vivo, Abutilon theophrasti
Details: dosage 1280 g/ha, visual rating about 3 weeks after treatment vs untreated controls (100% = plants died)
The figure you give is taken to be in %; do not add the unit.

Record request: Post-emergence action against ABUTH value, item O=C(O)C1CCCN1C(=O)COc1nn(-c2ccccc2F)c(-c2cncc(F)c2)c1Br (stereo not drawn) 100

Record request: Post-emergence action against ABUTH value, item COC(=O)[C@@H](C)Oc1nn(-c2ccccc2)c(-c2cccnc2)c1Br 90

I would be grateful if you could share the reported Post-emergence action against ABUTH for COC(=O)COc1nn(-c2c(F)cccc2F)c(-c2ccc(F)nc2)c1Br . 100

What value of Post-emergence action against ABUTH has been recorded for this entry: CCOC(=O)COc1nn(-c2cc(F)c(F)cc2F)c(-c2ccc(F)nc2)c1Cl 90

More entries:
What does the data say about its Post-emergence action against ABUTH? Entry: COC(=O)CCOC(=O)COc1nn(-c2ccccc2F)c(-c2ccc(F)nc2)c1Br 90

====

System: LOLRI
Test: Post-emergence action against LOLRI, 1.28 kg/ha
Assay type: in vivo, Lolium rigidum
Details: dosage 1280 g/ha, visual rating about 3 weeks after treatment vs untreated controls
Consider the following compounds and their measured Post-emergence action against LOLRI readings.
Answer in %, number only, no unit symbol.

Here are 3 compounds together with their reported answers.
Bench note: what Post-emergence action against LOLRI did O=C(COc1nn(-c2ccccc2F)c(-c2ccc(F)nc2)c1C(F)(F)F)NS(=O)(=O)CC(F)(F)F show? 90

Which Post-emergence action against LOLRI value belongs to O=C(O)CNC(=O)COc1nn(-c2ccccc2F)c(-c2ccc(F)nc2)c1C(F)(F)F ? 90

Given the entry CONC(=O)COc1nn(-c2ccccc2F)c(-c2ccc(F)nc2)c1Br , report its measured Post-emergence action against LOLRI. 100

Please find the next compound below.
May I ask what Post-emergence action against LOLRI has been recorded for COC(=O)[C@@H](C)Oc1nn(-c2ccccc2F)c(-c2cnc(F)c(F)c2)c1Br ? 100

====

Tested on: ECHCG
Test: Pre-emergence action against ECHCG, 1280 g/ha
Format: in vivo, Echinochloa crus-galli
Details: Echinochloa crus-galli, 504 h, visual scoring after about 3 weeks vs untreated controls, 100% = plants have died, 0% = like control plants
readout: pest or weed control at 1280 g/ha (%)
Could you give me the number in %? Just the number is fine.

Suppose we examine the compound CCOC(=O)COc1nn(-c2ccccc2F)c(-c2ccc(F)nc2)c1Br ; what pest or weed control at 1280 g/ha value has been reported? 100

# lookup: pest or weed control at 1280 g/ha of CCOC(=O)COc1nn(-c2ccccc2F)c(-c2ccnc(F)c2)c1Br 100

Which pest or weed control at 1280 g/ha value belongs to COC(=O)[C@@H](C)Oc1nn(-c2ccccc2F)c(-c2cncnc2)c1Br ? 100

Entry under review: CCOC(=O)COc1nn(-c2ccccc2F)c(-c2ccnnc2)c1Br . Reported pest or weed control at 1280 g/ha? 90

// next entry
Value lookup for pest or weed control at 1280 g/ha; key = C=CCNC(=O)COc1nn(-c2ccccc2F)c(-c2ccc(F)nc2)c1Br 100

====

Test system: ALOMY
Test: Pre-emergence action at 320 g/ha against ALOMY
Format: in vivo, Alopecurus myosuroides
Conditions: scored visually after about 3 weeks vs untreated controls (100% = plants have died)
Description: b) Seeds of monocotyledonous and dicotyledonous weed plants and crop plants are placed in plastic or organic planting pots and covered with soil. […] After about 3 weeks, the effect of the preparations is scored visually in comparison with untreated controls as percentages. […]
readout: Pre-emergence action at 320 g/ha against ALOMY in % (%)
Give just the number in %; leave the unit off.

# example entries with known answers
Name the reported Pre-emergence action at 320 g/ha against ALOMY in % value associated with the compound C[C@@H](Oc1nn(-c2ccccc2F)c(-c2cncc(F)c2)c1Br)C(=O)O 100

Any idea what Pre-emergence action at 320 g/ha against ALOMY in % was measured for COC(=O)[C@@H](C)Oc1nn(-c2cc(F)ccc2F)c(-c2cncc(F)c2)c1I ? 100

Fill in the blank: the reported Pre-emergence action at 320 g/ha against ALOMY in % of O=C(O)COc1nn(-c2ccccc2F)c(-c2ccc(F)nc2)c1I is ____. 100

Field request: Pre-emergence action at 320 g/ha against ALOMY in % | item: COC(=O)[C@@H](C)Oc1nn(-c2ccccc2)c(-c2cccnc2)c1Cl 90

Data request, read-out Pre-emergence action at 320 g/ha against ALOMY in %, for CCOC(=O)COc1nn(-c2ccccc2F)c(-c2cncc(F)c2)c1Br 100

Look up Pre-emergence action at 320 g/ha against ALOMY in %: C[C@@H](Oc1nn(-c2ccccc2)c(-c2cccnc2)c1Cl)C(=O)O 90

Next:
Given COC(=O)CNC(=O)COc1nn(-c2ccccc2F)c(-c2ccc(F)nc2)c1C(F)(F)F , state its recorded Pre-emergence action at 320 g/ha against ALOMY in %. 100

Item under review: COC(=O)[C@@H](C)Oc1nn(-c2ccccc2F)c(-c2ccnc(F)c2)c1Br . Reported Pre-emergence action at 320 g/ha against ALOMY in %? 100

Requested read-out: Pre-emergence action at 320 g/ha against ALOMY in %. Entry: CCC(Oc1nn(-c2ccccc2F)c(-c2ccc(F)nc2)c1Br)C(=O)OC (stereo not drawn) 90

====

Each item that follows carries a reported Post-emergence action against ALOMY.
Test system: ALOMY
Assay: Post-emergence action against ALOMY, 320 g/ha
Format: in vivo, Alopecurus myosuroides
Conditions: dosage 320 g/ha, visual rating about 3 weeks after treatment vs untreated controls (100% = plants died)
From the text: Accordingly, the compounds of the invention have good herbicidal action against a broad spectrum of weed grasses and broad-leaved weeds and are therefore suitable for controlling unwanted vegetation by the post-emergence method. • b) Seeds of monocotyledonous and dicotyledonous weeds and crop plants are placed in sandy loam in plastic or organic planting pots, covered with soil and cultivated in a greenhouse under controlled growth conditions. […]
Only the number, expressed in %, is required.

Some solved cases for reference:
Endpoint output: Post-emergence action against ALOMY of COC(=O)CNC(=O)COc1nn(-c2ccccc2F)c(-c2ccc(F)nc2)c1C(F)(F)F . Value? 100

GET /values?readout=Post-emergence action against ALOMY&item= CN(C)S(=O)(=O)NC(=O)COc1nn(-c2ccccc2F)c(-c2ccc(F)nc2)c1Br 90

Entry under review: CCOC(=O)COc1nn(-c2ccccc2F)c(-c2cncnc2)c1Br . Reported Post-emergence action against ALOMY? 90

Could you now consider this next molecule?
// lookup Post-emergence action against ALOMY for COC(=O)C(C)Oc1nn(-c2ccccc2)c(-c2ccc(F)nc2)c1Br (stereo not shown) [VII-026] 100

====

Test system: ALOMY
Assay: Pre-emergence action at 320 g/ha against ALOMY
Type: in vivo, Alopecurus myosuroides
Settings: scored visually after about 3 weeks vs untreated controls (100% = plants have died)
Excerpt: b) Seeds of monocotyledonous and dicotyledonous weed plants and crop plants are placed in plastic or organic planting pots and covered with soil. […] After about 3 weeks, the effect of the preparations is scored visually in comparison with untreated controls as percentages. […]
We begin with a simple list: items and their reported Pre-emergence action at 320 g/ha against ALOMY in %.

Check out these entries, answers already filled in.
Record request: Pre-emergence action at 320 g/ha against ALOMY in % value, item COC(=O)[C@@H](C)Oc1nn(-c2cc(F)ccc2F)c(-c2ccc(F)nc2)c1Br 100%

Fill in the blank: the reported Pre-emergence action at 320 g/ha against ALOMY in % of CCOC(=O)CN(C)S(=O)(=O)NC(=O)COc1nn(-c2ccccc2F)c(-c2ccc(F)nc2)c1Br is ____. 90%

Dear colleague, I am looking for the recorded Pre-emergence action at 320 g/ha against ALOMY in % of the following molecule: CCOC(=O)COc1nn(-c2ccccc2)c(-c2ccc(F)nc2)c1Br 100%

Others:
Given CON(C)C(=O)COc1nn(-c2ccccc2F)c(-c2ccc(F)nc2)c1Br , state its recorded Pre-emergence action at 320 g/ha against ALOMY in %. 100%

====

// reported Post-emergence action against ALOMY per item
Tested on: ALOMY
Assay: Post-emergence action against ALOMY, 320 g/ha
Type: in vivo, Alopecurus myosuroides
Conditions: dosage 320 g/ha, visual rating about 3 weeks after treatment vs untreated controls (100% = plants died)
Express the result in % but write the number alone.

# get_value(readout='Post-emergence action against ALOMY', item= COC(=O)COc1nn(-c2ccccc2)c(-c2ccc(F)nc2)c1Br ) 90

Sample COC(=O)[C@@H](C)Oc1nn(-c2ccccc2F)c(-c2ccnc(F)c2)c1Br — what was its Post-emergence action against ALOMY? 100

Which measured Post-emergence action against ALOMY value corresponds to COC(=O)COc1nn(-c2ccccc2F)c(-c2ccc(F)nc2)c1F ? 100

More entries:
Dear colleague, I am looking for the recorded Post-emergence action against ALOMY of the following compound: CC(Oc1nn(-c2ccccc2F)c(-c2ccc(F)nc2)c1I)C(=O)O (stereo not drawn) 90

Can you look up the measured Post-emergence action against ALOMY of COCCOC(=O)COc1nn(-c2ccccc2F)c(-c2ccc(F)nc2)c1Br for me? 90

Which Post-emergence action against ALOMY reading was recorded for the compound CCOC(=O)COc1nn(-c2ccc(F)cc2F)c(-c2ccc(F)nc2)c1Cl ? 90
